# Test system: semi-synthetic organism (SSO) (strain YZ3)
# experiment_notes: Replication and UBP retention in vivo in the semi-synthetic organism (streptavidin biotin shift, PAGE), Example 1
# Type: cell-based, Escherichia coli
# condition_label: context 2 (AXA); dTPT3TP 2.5 μM; dNaMTP analog 2.5 μM
Measured UBP retention (%) by item

- compound: "COc1cc(C)c(F)cc1C1CC(O)C(COP(=O)(O)OP(=O)(O)OP(=O)(O)O)O1 (stereo not shown)"
  UBP retention (%): 47
- compound: "COc1cc(C#N)ccc1C1CC(O)C(COP(=O)(O)OP(=O)(O)OP(=O)(O)O)O1 (stereo not shown)"
  UBP retention (%): 92
- compound: "COc1cc(Cl)ccc1C1CC(O)C(COP(=O)(O)OP(=O)(O)OP(=O)(O)O)O1 (stereo not shown)"
  UBP retention (%): 73
- compound: "COc1cc(C)ccc1C1CC(O)C(COP(=O)(O)OP(=O)(O)OP(=O)(O)O)O1 (stereo not shown)"
  UBP retention (%): 17

* * *

# Tested on: semi-synthetic organism (SSO) (strain YZ3)
# experiment_notes: Replication and UBP retention in vivo in the semi-synthetic organism (streptavidin biotin shift, PAGE), Example 1
# Format: cell-based, Escherichia coli
# condition_label: context 3 (CXC); dTPT3TP 2.5 μM; dNaMTP analog 2.5 μM
measured_metric: UBP retention (%)

- molecule: "COc1cc(Cl)ccc1C1CC(O)C(COP(=O)(O)OP(=O)(O)OP(=O)(O)O)O1 (stereo not shown)"
  measured_number: 9
- molecule: "COc1cc(C)c(F)cc1C1CC(O)C(COP(=O)(O)OP(=O)(O)OP(=O)(O)O)O1 (stereo not shown)"
  measured_number: 9
- molecule: "COc1cc(C)ccc1C1CC(O)C(COP(=O)(O)OP(=O)(O)OP(=O)(O)O)O1 (stereo not shown)"
  measured_number: 5
- molecule: "COc1cc(C#N)ccc1C1CC(O)C(COP(=O)(O)OP(=O)(O)OP(=O)(O)O)O1 (stereo not shown)"
  measured_number: 9

* * *

# System: semi-synthetic organism (SSO) (strain YZ3)
# experiment_notes: Replication and UBP retention in vivo in the semi-synthetic organism (streptavidin biotin shift, PAGE), Example 1
# Type: cell-based, Escherichia coli
# condition_label: context 2 (AXA); dTPT3TP 10 μM; dNaMTP analog 25 μM
# Method: All bacteria were cultured in 100 μL of liquid 2×YT media (casein peptone 16 g/L, yeast extract 10 g/L, NaCl 5 g/L) supplemented with potassium phosphate (50 mM, pH 7) in 96-well microwell plates. When noted, antibiotics were used at the following concentrations: chloramphenicol, 5 μg/mL; ampicillin, 100 μg/mL. Cell growth, indicated as OD600, was measured using a Perkin Elmer EnVision 2103 Multilabel Reader with a 590/20 nm filter. […]
measured_metric: UBP retention (%)

- compound: "COc1cc(C)c(F)cc1C1CC(O)C(COP(=O)(O)OP(=O)(O)OP(=O)(O)O)O1 (stereo not shown)"
  target_under_test: "semi-synthetic organism (SSO) (strain YZ3)"
  measured_metric: "UBP retention (%)"
  measured_number: 87
- compound: "COc1cc(C)ccc1C1CC(O)C(COP(=O)(O)OP(=O)(O)OP(=O)(O)O)O1 (stereo not shown)"
  target_under_test: "semi-synthetic organism (SSO) (strain YZ3)"
  measured_metric: "UBP retention (%)"
  measured_number: 88
- compound: "COc1cc(Cl)ccc1C1CC(O)C(COP(=O)(O)OP(=O)(O)OP(=O)(O)O)O1 (stereo not shown)"
  target_under_test: "semi-synthetic organism (SSO) (strain YZ3)"
  measured_metric: "UBP retention (%)"
  measured_number: 96
- compound: "COc1cc(C#N)ccc1C1CC(O)C(COP(=O)(O)OP(=O)(O)OP(=O)(O)O)O1 (stereo not shown)"
  target_under_test: "semi-synthetic organism (SSO) (strain YZ3)"
  measured_metric: "UBP retention (%)"
  measured_number: 95

* * *

Parameter: UBP retention (%). Scope: all listed entries.
# Tested on: semi-synthetic organism (SSO) (strain YZ3)
# experiment_notes: Replication and UBP retention in vivo in the semi-synthetic organism (streptavidin biotin shift, PAGE), Example 1
# Assay type: cell-based, Escherichia coli
# condition_label: context 2 (AXA); dTPT3TP 2.5 μM; dNaMTP analog 10 μM
measured_metric: UBP retention (%)

- molecule: "COc1cc(C#N)ccc1C1CC(O)C(COP(=O)(O)OP(=O)(O)OP(=O)(O)O)O1 (stereo not shown)"
  target_under_test: "semi-synthetic organism (SSO) (strain YZ3)"
  result: "82 ± 24%"
- molecule: "COc1cc(C)ccc1C1CC(O)C(COP(=O)(O)OP(=O)(O)OP(=O)(O)O)O1 (stereo not shown)"
  target_under_test: "semi-synthetic organism (SSO) (strain YZ3)"
  result: "54 ± 19%"
- molecule: "COc1cc(C)c(F)cc1C1CC(O)C(COP(=O)(O)OP(=O)(O)OP(=O)(O)O)O1 (stereo not shown)"
  target_under_test: "semi-synthetic organism (SSO) (strain YZ3)"
  result: "61 ± 27%"
- molecule: "COc1cc(Cl)ccc1C1CC(O)C(COP(=O)(O)OP(=O)(O)OP(=O)(O)O)O1 (stereo not shown)"
  target_under_test: "semi-synthetic organism (SSO) (strain YZ3)"
  result: "84 ± 7%"

* * *

# Test system: semi-synthetic organism (SSO) (strain YZ3)
# experiment_notes: Replication and UBP retention in vivo in the semi-synthetic organism (streptavidin biotin shift, PAGE), Example 1
# Assay type: cell-based, Escherichia coli
# condition_label: context 3 (CXC); dTPT3TP 10 μM; dNaMTP analog 2.5 μM

- compound: "COc1cc(Cl)ccc1C1CC(O)C(COP(=O)(O)OP(=O)(O)OP(=O)(O)O)O1 (stereo not shown)"
  UBP retention (%): 9
- compound: "COc1cc(C#N)ccc1C1CC(O)C(COP(=O)(O)OP(=O)(O)OP(=O)(O)O)O1 (stereo not shown)"
  UBP retention (%): 13
- compound: "COc1cc(C)c(F)cc1C1CC(O)C(COP(=O)(O)OP(=O)(O)OP(=O)(O)O)O1 (stereo not shown)"
  UBP retention (%): 6
- compound: "COc1cc(C)ccc1C1CC(O)C(COP(=O)(O)OP(=O)(O)OP(=O)(O)O)O1 (stereo not shown)"
  UBP retention (%): 9

Recorded values, source patent US12497642B2.
